target: Nociceptin receptor (Cavia porcellus) (UniProt P47748); assay: Inhibition of electrically evoked contraction of guinea pig ileum; Effect evident only in some tissues; format: functional, tissue-based; conditions: filed as agonist
Sequence (P47748 whole entry): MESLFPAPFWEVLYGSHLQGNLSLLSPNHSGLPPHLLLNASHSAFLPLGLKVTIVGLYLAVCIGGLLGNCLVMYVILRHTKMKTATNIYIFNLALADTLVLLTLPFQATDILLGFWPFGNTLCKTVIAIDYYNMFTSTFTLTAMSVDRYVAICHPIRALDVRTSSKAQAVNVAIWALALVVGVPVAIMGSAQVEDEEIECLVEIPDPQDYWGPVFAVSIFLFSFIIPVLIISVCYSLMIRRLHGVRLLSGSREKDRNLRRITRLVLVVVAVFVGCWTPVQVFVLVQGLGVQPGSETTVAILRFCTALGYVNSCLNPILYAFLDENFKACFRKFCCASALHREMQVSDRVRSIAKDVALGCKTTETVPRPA
Numbered stars: 1 amine (or outer) side, 2 acyl side, 3 side chain; on linkers, the order of the positions; unused ones are H or OH. Square brackets hold non-standard residues; d marks the D form. Peptide text beside a SMILES is read from it. X1 = N[C@@H](Cc1ccccc1)CN(CC(=O)[*:2])[*:1]
Recorded Metric: Log EC50

# Molecule, Assayed Target, Recorded Metric, Test Value
records = [
    ("C[C@H](NC(=O)CNC(=O)[C@@H](NC(=O)[C@H](Cc1ccc(F)cc1)NC(=O)CNC(=O)CNC(=O)CNCc1ccccc1)[C@@H](C)O)C(=O)N[C@@H](CCCN=C(N)N)C(=O)N[C@@H](CCCCN)C(=O)N[C@@H](CO)C(=O)N[C@@H](C)C(=O)N[C@@H](CCCN=C(N)N)C(=O)N[C@@H](CCCCN)C(=O)N[C@@H](CCCN=C(N)N)C(=O)N[C@@H](CCCCN)C(=O)N[C@@H](CC(N)=O)C(=O)N[C@@H](CCC(=O)N(N)N)C(=O)NN", "Nociceptin receptor (Cavia porcellus) (UniProt P47748)", "Log EC50", "Agonist"),
    ("CC(C)C[C@H](NC(=O)[C@H](CCCCN)NC(=O)[C@H](CCCN=C(N)N)NC(=O)[C@H](C)NC(=O)[C@H](CO)NC(=O)[C@H](CCCCN)NC(=O)[C@H](CCCN=C(N)N)NC(=O)[C@H](C)NC(=O)CNC(=O)[C@@H](NC(=O)[C@H](Cc1ccc(F)cc1)NC(=O)CNC(=O)CNC(=O)CNCc1ccccc1)[C@@H](C)O)C(=O)N[C@@H](C)C(=O)N[C@@H](CC(N)=O)C(=O)N[C@@H](CCC(N)=O)C(N)=O", "Nociceptin receptor (Cavia porcellus) (UniProt P47748)", "Log EC50", "Agonist"),
    ("CC(C)C[C@H](NC(=O)[C@H](CCCCN)NC(=O)[C@H](CCCN=C(N)N)NC(=O)[C@H](C)NC(=O)[C@H](CO)NC(=O)[C@H](CCCCN)NC(=O)[C@H](CCCN=C(N)N)NC(=O)[C@H](C)NC(=O)CNC(=O)[C@@H](NC(=O)[C@H](Cc1ccccc1)NC(=O)CNC(=O)CNC[C@@H](N)Cc1ccccc1)[C@@H](C)O)C(=O)N[C@@H](C)C(=O)N[C@@H](CC(N)=O)C(=O)N[C@@H](CCC(N)=O)C(N)=O (H-[X1]GFTGARKSARKLANQ-NH2)", "Nociceptin receptor (Cavia porcellus) (UniProt P47748)", "Log EC50", "Agonist"),
]
